mRNA levels Apoe listing for selected molecules.
# Test system: PU.1 dependent gene expression
# run.description: RT-qPCR of mRNA levels in BV2 PU.1-Luciferase cells (validation round 3); note: test concentration or dose not given here
# Format: cell-based, mouse
# condition.label: 2-day treatment

Some solved cases for reference:
[
  {
    "molecule": "CCCCN(c1ccccc1)c1ncnc2c1cnn2-c1ccc(Cl)cc1 [Compound 2G8]",
    "experimental.target": "PU.1 dependent gene expression",
    "mRNA levels Apoe": "1.119 multiples of 1×"
  },
  {
    "molecule": "CCCCN(C)C(=O)C1CCCN(c2ncnc3onc(C)c23)C1 (stereo not drawn) [Compound 2D5]",
    "experimental.target": "PU.1 dependent gene expression",
    "mRNA levels Apoe": "1.400 multiples of 1×"
  }
]

For the next question, use this molecule.
Check the records and state mRNA levels Apoe for CC(C)(C)OC(=O)N1CCC(c2c(C(=O)Nc3ccc4c(c3)OCCO4)cnn2-c2ccccc2)CC1 [Compound 2C12]
0.731 multiples of 1×

Where these numbers come from: patent US20220340983A1
